system.under.test: Ephrin type-A receptor 2 (Homo sapiens);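 note: reported values are mean percent inhibition of EPHA2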
condition.parameters: at 0.1 µM
Overview of recorded inhibition for various molecules
Could you give me the number in %? Just the number is fine.

molecule: Cc1cc(O)cc(C)c1/C=C/c1cncc(C(=O)N(C)C)c1
inhibition, %: 2.13

molecule: NC(=O)c1sc(-n2cnc3ccccc32)cc1OCc1ccccc1Br
inhibition, %: 0.63

molecule: Oc1cccc(-c2nc(-c3ccccc3)[nH]c2-c2ccncc2)c1
inhibition, %: 1.93

molecule: NS(=O)(=O)c1ccc(N/N=C2\C(=O)Nc3ccc(Cl)cc32)cc1
inhibition, %: 1.86

Q: Lab note: Ephrin type-A receptor 2 (Homo sapiens) assay, enter inhibition for Nc1nccc(-c2c(-c3ccc(F)cc3)ncn2CCCN2CCOCC2)n1 here
Result: -0.08

Q: Lab note: Ephrin type-A receptor 2 (Homo sapiens) assay, enter inhibition for COc1cc2ncn(-c3cc(OCc4ccccc4S(C)(=O)=O)c(C#N)s3)c2cc1OC here
Result: 9.06

Q: Lab note: Ephrin type-A receptor 2 (Homo sapiens) assay, enter inhibition for NS(=O)(=O)c1ccc(Nc2cc(-c3cccc(O)c3)n[nH]2)cc1 here
Result: 1.13

Q: Lab note: Ephrin type-A receptor 2 (Homo sapiens) assay, enter inhibition for CN(C)c1cc2c(Nc3ccc4c(cnn4Cc4ccccc4)c3)ncnc2cn1 here
Result: 0.12

Q: Lab note: Ephrin type-A receptor 2 (Homo sapiens) assay, enter inhibition for NC(=O)c1cccc(Nc2nccc(Nc3cccc(F)c3)n2)c1 here
Result: -0.63

Q: Lab note: Ephrin type-A receptor 2 (Homo sapiens) assay, enter inhibition for CCCN1CCCC(c2ccc(Nc3nc(Nc4cc(F)ccc4C(N)=O)c4cc[nH]c4n3)c(OC)c2)C1 (configuration not stated) here
Result: -1.17

Q: Lab note: Ephrin type-A receptor 2 (Homo sapiens) assay, enter inhibition for CN1CCN(C(=O)c2ccc(NC(=O)Nc3ccc(N(C)c4ccnc(Nc5ccc(CS(C)(=O)=O)cc5)n4)cc3)cc2)CC1 here
Result: 0.47

Q: Lab note: Ephrin type-A receptor 2 (Homo sapiens) assay, enter inhibition for Cc1ccc2c(c1)/C(=N/Nc1ccc(S(N)(=O)=O)cc1)C(=O)N2 here
Result: 1.34

Q: Lab note: Ephrin type-A receptor 2 (Homo sapiens) assay, enter inhibition for CN(C)CCCn1c(-c2nonc2N)nc2cnccc21 here
Result: 0.86

Q: Lab note: Ephrin type-A receptor 2 (Homo sapiens) assay, enter inhibition for COc1cc2ncnc(Nc3ccc4c(cnn4Cc4ccccc4)c3)c2cc1OC here
Result: -2.8

Q: Lab note: Ephrin type-A receptor 2 (Homo sapiens) assay, enter inhibition for Cc1ccc2c(-c3ccnc(Nc4cccc(C(F)(F)F)c4)n3)c(-c3ccccc3)nn2n1 here
Result: 0.69

Q: Lab note: Ephrin type-A receptor 2 (Homo sapiens) assay, enter inhibition for c1ccc(Nc2ncc(-c3ccccc3)o2)cc1 here
Result: 1.18

Q: Lab note: Ephrin type-A receptor 2 (Homo sapiens) assay, enter inhibition for [O-][S+]1CCN(Cc2ccc(-c3ccc4ncnc(Nc5ccc(OCc6ccccc6)c(Cl)c5)c4c3)o2)CC1 here
Result: -3.15

Q: Lab note: Ephrin type-A receptor 2 (Homo sapiens) assay, enter inhibition for NS(=O)(=O)c1ccc(-c2cc3ccncc3cc2OCc2ccccc2)cc1 here
Result: 0.69

Q: Lab note: Ephrin type-A receptor 2 (Homo sapiens) assay, enter inhibition for Cc1ccc(C(=O)NC2CC2)cc1-c1ccc2[nH]ncc2c1 here
Result: -1.76

Q: Lab note: Ephrin type-A receptor 2 (Homo sapiens) assay, enter inhibition for COc1cc2ncnc(Nc3ccc(C)c(O)c3)c2cc1OC here
Result: 2.35

Q: Lab note: Ephrin type-A receptor 2 (Homo sapiens) assay, enter inhibition for CCS(=O)(=O)c1ccc(OC)c(Nc2ncc(-c3cccc(OC)c3)o2)c1 here
Result: 3.67

Q: Lab note: Ephrin type-A receptor 2 (Homo sapiens) assay, enter inhibition for NS(=O)(=O)c1cccc(Nc2cc(-c3ccc(F)cc3)n[nH]2)c1 here
Result: 0.44

The reported measurements were obtained from ChEMBL document CHEMBL1961873.
